Items are presented alongside their recorded LD50 at 24 h.
- procedure details: Acute toxicity (LD50) in mouse
- Type: in vivo
- condition details: Albino Swiss CD-1, in vivo, os (oral), single administration

compound	unit text	comparison operator	LD50 at 24 h
C[C@]12CCC(=NOCCN)C[C@@H]1C(=O)C[C@@H]1[C@@H]2CC[C@]2(C)C(=O)CC[C@@H]12 [Istaroxime]	mg/kg	=	200
C[C@]12CCC(=NOCC(=O)O)CC1[C@H](O)CC1C2CC[C@]2(C)C(=O)CCC12 (some centres unmarked) [PST 3093]	mg/kg	>	200

====

- target: UniProt:P50997
- procedure details: Inhibition of dog renal Na,K-ATPase activity (32P-ATP)
- Assay type: biochemical
- condition details: purified dog kidney enzyme, 37° C.; read-out: IC50, inhibition of dog renal Na,K-ATPase
Items are presented alongside their recorded IC50.
measurement label: IC50 (nM)

smiles code	reported
C[C@]12CCC(=NOCCN)C[C@@H]1C(=O)C[C@@H]1[C@@H]2CC[C@]2(C)C(=O)CC[C@@H]12	140
C[C@H]1O[C@@H](O[C@H]2[C@@H](O)C[C@H](O[C@H]3[C@@H](O)C[C@H](O[C@H]4CC[C@@]5(C)[C@H](CC[C@@H]6[C@@H]5C[C@@H](O)[C@]5(C)[C@@H](C7=CC(=O)OC7)CC[C@]65O)C4)O[C@@H]3C)O[C@@H]2C)C[C@H](O)[C@@H]1O	180
